System: Mycobacterium tuberculosis
experiment.notes: Antimicrobial activity against second mutant generation Mycobacterium tuberculosis 1024_18 assessed as fold shift in MIC relative to parent strain
Format: functional
recorded.endpoint: Ratio
# answer = number (no unit)

query: Quick one: Ratio for `COc1c(N2C[C@@H]3CCCN[C@@H]3C2)c(F)cc2c(=O)c(C(=O)O)cn(C3CC3)c12` ?
result: 0.5

query: Name the recorded Ratio for `NNC(=O)c1ccncc1` .
result: 1

query: Returns the measured Ratio for the input compound. Input: `COc1nc2ccc(Br)cc2cc1[C@@H](c1ccccc1)[C@@](O)(CCN(C)C)c1cccc2ccccc12`
result: 0.25

query: Returns the measured Ratio for the input compound. Input: `CCCc1cc(-c2nc(-c3ccncc3)cs2)ccn1`
result: 8

query: Given the compound `CCCc1cc(-c2nc(-c3ccc(C)cc3)cs2)ccn1` , what is its reported Ratio?
result: 16

query: Which Ratio is listed for `CCCc1cc(-c2nc(-c3ccc(OCCN4CCOCC4)cc3)cs2)ccn1` ?
result: 8
